Measured inhibition, listed per entry for reference.
molecular target: PAS domain-containing serine/threonine-protein kinase (Homo sapiens); conditions: at 0.1 µM
Description: GSK_PKIS: PASK mean inhibition at 0.1 uM [Nanosyn]
OUTCOME_MEASURE: inhibition (%)

# COMPOUND, OUTCOME_MEASURE, VALUE_REPORTED
measured = [
    ("CCN(CC)S(=O)(=O)c1ccc(OC)c(Nc2ncc(-c3ccccc3)o2)c1", "inhibition", 1.24),
    ("COc1cc2c(cc1Nc1nc(Nc3ccsc3C(N)=O)c3cc[nH]c3n1)N(C(=O)CN(C)C)CCC2(C)C", "inhibition", -1.55),
    ("N#Cc1c(NC(=O)c2ccc(F)cc2)sc2c1CCCC2", "inhibition", -0.36),
    ("CN1CCC(n2cnc(-c3ccc(F)cc3)c2-c2ccnc(N)n2)CC1", "inhibition", -0.52),
    ("O=C(O[C@H]1CN[C@H](C#Cc2cc3ncnc(Nc4ccc(Cc5ccccc5)cc4)c3s2)C1)N1CCOCC1", "inhibition", 0.94),
    ("CCOc1ccc2c(-c3ccnc(Nc4cccc(C(F)(F)F)c4)n3)cnn2n1", "inhibition", 0.62),
    ("CN(C)CCOc1ccc(-c2nc(-c3ccncc3)c(-c3ccc4c(c3)CC/C4=N\\O)[nH]2)cc1", "inhibition", -0.26),
    ("Clc1ccc(-c2nn3ncccc3c2-c2ccnc(Nc3ccccc3)n2)cc1", "inhibition", -0.14),
    ("COC(=O)Nc1nc2ccc(S(=O)(=O)c3ccc(NC(=O)Nc4cc(C(F)(F)F)ccc4F)cc3)cc2[nH]1", "inhibition", 0.31),
    ("Fc1ccc(-c2nn3ncccc3c2-c2ccnc(Nc3ccc4c(c3)OCCO4)n2)cc1", "inhibition", -0.29),
    ("CC1=C(C(=O)Nc2cc(Cl)c3[nH]ncc3c2)C(c2ccc(C(F)(F)F)cc2)CC(=O)N1 (centres undefined)", "inhibition", -0.35),
    ("Cc1ccc(O)cc1Nc1ccnc2cc(-c3ccccn3)ccc12", "inhibition", 0.71),
    ("CC(=O)NCc1cccc(C#Cc2cncnc2Nc2ccc(OCc3cccc(F)c3)c(Cl)c2)c1", "inhibition", -0.91),
    ("CC(C)(CO)CNC(=O)c1ccc2c(c1)/C(=N/Nc1ccc(S(N)(=O)=O)cc1)C(=O)N2", "inhibition", 1.39),
    ("Cc1ccc2c(-c3ccnc(Nc4ccccc4)n3)c(-c3ccc(F)cc3)nn2n1", "inhibition", 0.46),
    ("CCNC(=O)O[C@H]1CN[C@H](C#Cc2cc3ncnc(Nc4ccc(OCc5cccc(F)c5)c(Cl)c4)c3s2)C1", "inhibition", 0.27),
    ("CCc1nn2ncccc2c1-c1ccnc(NC2CC2)n1", "inhibition", 1.03),
    ("CCCN(CCS(C)(=O)=O)Cc1ccc(-c2ccc3ncnc(Nc4ccc(OCc5cccc(F)c5)c(Cl)c4)c3c2)o1", "inhibition", 0.15),
    ("COc1cc2ncn(-c3cc(OCc4ccccc4C(F)(F)F)c(C(=O)N(C)C)s3)c2cc1OC", "inhibition", -1.08),
]

----------
Measured inhibition, listed per entry for reference.
target: Protein kinase C gamma type (Homo sapiens); settings: at 0.1 µM;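 also: values are mean percent inhibition of PKC gamma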

# MOLECULE, inhibition (%)
measured = [
    ("COc1ccc(CNC(=O)c2ccc(-c3cc(-c4nnc(C)o4)ccc3C)cc2)cc1", 3.1),
    ("CNC(=O)c1cccc(C#Cc2cncnc2Nc2ccc(OCc3cccc(F)c3)c(Cl)c2)c1", 0.99),
    ("[O-][S+]1CCN(Cc2ccc(-c3ccc4ncnc(Nc5ccc(OCc6cccc(F)c6)c(Cl)c5)c4c3)o2)CC1", 3.03),
    ("Cc1ccc(O)cc1Nc1ccnc2cc(-c3ccccn3)ccc12", 5.48),
    ("CC1=C(C(=O)Nc2cc(Cl)c3[nH]ncc3c2)C(c2ccc(C(F)(F)F)cc2)CC(=O)N1 (centres undefined)", 3.92),
    ("O=S(=O)(CCNCc1ccc(-c2ccc3ncnc(Nc4ccc(OCc5cccc(F)c5)c(Cl)c4)c3c2)o1)c1ccccc1", 1.93),
    ("CCN(CC)S(=O)(=O)c1ccc(OC)c(Nc2ncc(-c3ccccc3)o2)c1", 0.29),
    ("COc1cc2ncn(-c3cc(OCc4ccccc4C(F)(F)F)c(C(=O)N(C)C)s3)c2cc1OC", -1.33),
    ("NS(=O)(=O)c1ccc(N/N=C2\\C(=O)Nc3ccc4ncccc4c32)cc1", 0.51),
]

----------
target: Serine/threonine-protein kinase PAK 1 (Homo sapiens); conditions: at 0.1 µM;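 also: values are mean PAK1 inhibition from the GSK PKIS kinase inhibitor set screen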
OUTCOME_MEASURE: inhibition (%)

# COMPOUND, VALUE_REPORTED
measured = [
    ("FC(F)(F)c1cccc(-c2nn3ncccc3c2-c2ccnc(Nc3ccc4c(c3)OCCO4)n2)c1", 3.7),
    ("c1ccc(COc2ccc(Nc3ncnc4ccc(-c5ccco5)cc34)cc2)cc1", 5.7),
    ("CN1CCC(n2cnc(-c3ccc(F)cc3)c2-c2ccnc(N)n2)CC1", -0.17),
    ("Nc1nc(-c2cccc(Cl)c2)c(-c2ccc3ncccc3n2)s1", 6.12),
    ("CC1=C(C(=O)Nc2cc(Cl)c3[nH]ncc3c2)C(c2ccc(C(F)(F)F)cc2)CC(=O)N1 (stereo not drawn)", 3.76),
    ("Cc1cccc(Nc2ncc(-c3ccccc3)o2)c1", -2.05),
    ("Nc1nc(-c2ccc(F)cc2)c(-c2ccc3ncccc3n2)s1", 6.29),
    ("CN1CCC(n2cnc(-c3ccc(F)cc3)c2-c2ccnc(Nc3ccccc3)n2)CC1", 1.24),
]

----------
Measured inhibition, listed per entry for reference.
Biological target: MAP/microtubule affinity-regulating kinase 4 (Homo sapiens) (UniProt Q96L34);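 also: reported value is a mean MARK4 inhibition at 1 µM, taken from the GSK PKIS screening set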
Sequence (whole entry): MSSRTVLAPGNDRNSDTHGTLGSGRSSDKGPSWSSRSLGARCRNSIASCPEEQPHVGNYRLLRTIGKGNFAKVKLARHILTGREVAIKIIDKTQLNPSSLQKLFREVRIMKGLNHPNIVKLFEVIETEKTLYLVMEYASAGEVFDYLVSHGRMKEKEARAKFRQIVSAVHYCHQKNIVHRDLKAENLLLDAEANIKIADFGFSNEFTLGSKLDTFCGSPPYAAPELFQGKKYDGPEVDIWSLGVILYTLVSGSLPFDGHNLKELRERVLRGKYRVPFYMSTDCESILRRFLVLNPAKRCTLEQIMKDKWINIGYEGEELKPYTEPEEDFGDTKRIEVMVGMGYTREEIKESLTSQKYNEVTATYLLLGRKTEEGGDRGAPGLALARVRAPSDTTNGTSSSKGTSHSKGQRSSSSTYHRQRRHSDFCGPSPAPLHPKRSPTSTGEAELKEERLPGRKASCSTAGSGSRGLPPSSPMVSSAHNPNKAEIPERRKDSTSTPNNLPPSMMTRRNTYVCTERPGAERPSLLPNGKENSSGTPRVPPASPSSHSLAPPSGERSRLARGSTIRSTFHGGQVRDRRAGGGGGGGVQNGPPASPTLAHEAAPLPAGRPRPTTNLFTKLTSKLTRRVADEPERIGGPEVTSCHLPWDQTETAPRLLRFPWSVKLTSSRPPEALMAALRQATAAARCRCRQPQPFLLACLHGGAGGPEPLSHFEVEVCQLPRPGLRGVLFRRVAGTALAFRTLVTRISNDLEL
Conditions: at 1 µM
OUTCOME_MEASURE: inhibition (%)

# COMPOUND, UNIT_OF_MEASURE, VALUE_REPORTED
records = [
    ("CCOc1ccc2c(-c3ccnc(Nc4cccc(C(F)(F)F)c4)n3)cnn2n1", "%", 1.8),
    ("CNC(=O)c1cc(-c2ccc(F)cc2)cc(-c2ccc(S(=O)(=O)N3CCCC3)cc2)c1N", "%", 1.19),
    ("CCn1c(-c2nonc2N)nc2ccccc21", "%", 2.84),
    ("COc1cccc(-n2ncc3c(N/N=C/c4ccc(F)cc4)ncnc32)c1", "%", 2.4),
    ("COc1ccc(-c2cc(-c3c[nH]nc3-c3ccccn3)ccn2)cc1", "%", 2.28),
    ("N#Cc1c(NC(=O)c2ccc(F)cc2)sc2c1CCCC2", "%", 1.29),
    ("CS(=O)(=O)CCNCc1coc(-c2ccc3ncnc(Nc4ccc(OCc5ccccc5)cc4)c3c2)c1", "%", 1.07),
    ("c1ccc(-c2nc3n(c2-c2ccc4c(c2)OCO4)CCC3)nc1", "%", 2.7),
    ("COc1ccc(-c2cc3c(N)ncnc3o2)cc1", "%", 1.62),
    ("CNC(=O)c1cncc(/C=C/c2ccccc2Cl)c1", "%", 2.25),
    ("CC(=O)Nc1cccc(C#Cc2cncnc2Nc2ccc(OCc3cccc(F)c3)c(Cl)c2)c1", "%", 0.69),
]

----------
biological target: Cyclin-dependent kinase 2 (Homo sapiens); settings: at 1 µM;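 also: mean inhibition of the CDK2–cyclin A kinase complex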

# COMPOUND, inhibition (%)
records = [
    ("c1ccc(-c2nc3n(c2-c2ccc4c(c2)OCO4)CCC3)nc1", -5.6),
    ("CCn1c(-c2nonc2N)nc2c(C#CC(C)(C)O)ncc(OC3CCNCC3)c21", 1.76),
    ("COc1ccc(-c2cc3c(N)ncnc3o2)cc1", 2.69),
    ("COc1ccc(-c2cc(-c3c[nH]nc3-c3ccccn3)ccn2)cc1", 7.74),
    ("COc1ccc2[nH]c3c4[nH]c5ccc(OC)cc5c4c4c(c3c2c1)C(=O)NC4=O", 3),
    ("COc1ccc(-c2oc3ncnc(N)c3c2-c2ccc(NC(=O)Nc3cc(C(F)(F)F)ccc3F)cc2)cc1", 28.1),
    ("COc1ccc(CNC(=O)c2ccc(-c3cc(-c4nnc(C)o4)ccc3C)cc2)cc1", -1.7),
    ("Nc1nc(-c2cccc(Cl)c2)c(-c2ccc3ncccc3n2)s1", 0.95),
    ("COc1cc2c(cc1Nc1nc(Nc3ccsc3C(N)=O)c3cc[nH]c3n1)N(C(=O)CN(C)C)CCC2(C)C", -0.79),
    ("CC(C)(CO)CNC(=O)c1ccc2c(c1)/C(=N/Nc1ccc(S(N)(=O)=O)cc1)C(=O)N2", 93.6),
    ("CN1CCC(n2cnc(-c3ccc(F)cc3)c2-c2ccnc(N)n2)CC1", 1.07),
    ("CCCN(CCS(C)(=O)=O)Cc1ccc(-c2ccc3ncnc(Nc4ccc(OCc5cccc(F)c5)c(Cl)c4)c3c2)o1", -1.6),
    ("c1cc(-c2cnn3nc(N4CCOCC4)ccc23)nc(NC2CC2)n1", 50.7),
    ("CC(C)COC(=O)c1ccc2c(c1)/C(=C/Nc1ccc(S(N)(=O)=O)cc1)C(=O)N2", 86.6),
    ("CCOc1ccc2c(-c3ccnc(Nc4cccc(C(F)(F)F)c4)n3)cnn2n1", 8.89),
    ("CCNC(=O)O[C@H]1CN[C@H](C#Cc2cc3ncnc(Nc4ccc(OCc5cccc(F)c5)c(Cl)c4)c3s2)C1", -0.72),
]
